B1: PDLIM7 (parent)
chain: AAGGVPGGGSNNGKTPVCHQCHKV

Variants of: B1
Experiment: protein stability index of a GFP-peptide fusion (GPS, HEK-293T) (PSI 1-6); higher = more stable;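 further: lentivirally expressed fusions sorted by FACS into six bins by GFP to DsRed ratio, PSI derived from sequencing read proportions per bin multiplied by bin number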
Conditions: c terminus: a fixed tail appended
// reported protein stability index for each item listed
Give a plain numeric answer without units written out.

// solved cases for protein stability index follow
INSERT INTO results (variantnotation, observed) VALUES
  ('G9V', 2.59),
  ('S10K', 3.18),
  ('G3C', 3.41),
  ('G8T', 4.16),
  ('G7F', 2.9);

Turning now to a further variant:
// protein stability index value for A1F : 2.45

meta.source: the supplement of paper PMC10567573
